# targetOrSystem: T1, CRBN, Q96SW2;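 note: pooled lentiviral library of zinc finger degron-EGFP fusions in mCherry-positive Jurkat cells, FACS-sorted after compound exposure, with degron abundance counted by next-generation sequencing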
# T1 chain: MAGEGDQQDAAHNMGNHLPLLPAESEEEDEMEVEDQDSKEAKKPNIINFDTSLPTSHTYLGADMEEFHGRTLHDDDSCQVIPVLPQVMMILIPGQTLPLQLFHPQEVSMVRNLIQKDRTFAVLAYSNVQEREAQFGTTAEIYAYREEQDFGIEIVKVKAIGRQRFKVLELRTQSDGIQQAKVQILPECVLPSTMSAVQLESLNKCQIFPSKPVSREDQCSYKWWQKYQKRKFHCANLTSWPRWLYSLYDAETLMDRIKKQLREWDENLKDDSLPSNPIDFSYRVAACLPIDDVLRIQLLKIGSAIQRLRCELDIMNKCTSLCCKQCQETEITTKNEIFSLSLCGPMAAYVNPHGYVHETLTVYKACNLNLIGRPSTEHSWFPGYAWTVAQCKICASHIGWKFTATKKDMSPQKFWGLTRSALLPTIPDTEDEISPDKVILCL
# assayComment: log2 fold change of degron read counts, EGFP-low vs EGFP+ sorted cells (limma voom), compound-induced degradation; higher = more compound-induced degradation of the degron-EGFP fusion; degrons are variants of IKZF1/3 zinc finger 2; compound dose not given here
# conditions: Jurkat; 18 h; compound: thalidomide
Over roughly 8,300 sequences, “log2 fold change of degron read counts, EGFP-low vs EGFP+ sorted cells (limma voom), compound-induced degradation” has its median near -1.1; the highest 2% begin near 3.2. This excerpt belongs to a sample that is enriched for the highest values.
resultType: log2 fold change of degron read counts

FACEICGAQFTQKGNLLRHIKL [46F_47A_49E_50I_52G_53A_54Q_55F_67L_, Q9UKT9]: 1.07
FCCEVCGAKFTQKGNLLRHIKL [46F_47C_49E_50V_52G_53A_54K_55F_67L_, Q9UKT9]: 2.71
FVCEICGAQFTQKGNLLRHIKL [46F_47V_49E_50I_52G_53A_54Q_55F_67L_, Q9UKT9]: 3.22
FNCEVCGAKFTQKGNLLRHIKL [46F_47N_49E_50V_52G_53A_54K_55F_67L_, Q9UKT9]: 0.139
FFCEVCGAKFTQKGNLLRHIKL [46F_47F_49E_50V_52G_53A_54K_55F_67L_, Q9UKT9]: 1.64
FNCEICGAQFTQKGNLLRHIKL [46F_47N_49E_50I_52G_53A_54Q_55F_67L_, Q9UKT9]: 0.564

Now consider the entry below.
*Q* Data request, read-out log2 fold change of degron read counts, for FCCDVCGACFTQKGNLLRHIKL [46F_47C_49D_50V_52G_53A_54C_55F_67L_, Q9UKT9]
*A* -0.594
